Test Target: beta-catenin-B-cell lymphoma 9 protein complex (Homo sapiens)
Sequence (P35222 whole entry, the tested form may be a part): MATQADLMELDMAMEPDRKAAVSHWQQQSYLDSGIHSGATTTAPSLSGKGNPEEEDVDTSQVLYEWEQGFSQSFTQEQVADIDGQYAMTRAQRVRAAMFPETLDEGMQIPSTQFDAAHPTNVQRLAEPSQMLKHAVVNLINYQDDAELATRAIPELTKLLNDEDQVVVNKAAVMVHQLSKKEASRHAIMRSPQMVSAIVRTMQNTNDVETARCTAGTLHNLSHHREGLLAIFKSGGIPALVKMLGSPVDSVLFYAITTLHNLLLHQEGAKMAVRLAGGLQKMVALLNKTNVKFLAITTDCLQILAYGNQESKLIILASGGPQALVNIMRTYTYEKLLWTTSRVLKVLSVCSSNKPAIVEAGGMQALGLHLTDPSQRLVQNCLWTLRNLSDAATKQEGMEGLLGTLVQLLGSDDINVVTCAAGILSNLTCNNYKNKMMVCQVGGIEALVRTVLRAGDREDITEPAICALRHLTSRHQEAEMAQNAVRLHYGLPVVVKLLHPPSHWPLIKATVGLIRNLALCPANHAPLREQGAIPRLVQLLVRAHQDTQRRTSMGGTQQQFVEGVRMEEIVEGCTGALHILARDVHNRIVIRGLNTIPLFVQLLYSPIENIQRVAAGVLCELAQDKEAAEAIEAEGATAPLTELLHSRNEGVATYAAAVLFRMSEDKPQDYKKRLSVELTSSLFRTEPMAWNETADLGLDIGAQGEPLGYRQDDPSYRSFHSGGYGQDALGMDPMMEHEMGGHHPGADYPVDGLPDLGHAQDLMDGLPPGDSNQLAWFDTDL
Sequence (O00512 whole entry, further chain, the tested form may be a part): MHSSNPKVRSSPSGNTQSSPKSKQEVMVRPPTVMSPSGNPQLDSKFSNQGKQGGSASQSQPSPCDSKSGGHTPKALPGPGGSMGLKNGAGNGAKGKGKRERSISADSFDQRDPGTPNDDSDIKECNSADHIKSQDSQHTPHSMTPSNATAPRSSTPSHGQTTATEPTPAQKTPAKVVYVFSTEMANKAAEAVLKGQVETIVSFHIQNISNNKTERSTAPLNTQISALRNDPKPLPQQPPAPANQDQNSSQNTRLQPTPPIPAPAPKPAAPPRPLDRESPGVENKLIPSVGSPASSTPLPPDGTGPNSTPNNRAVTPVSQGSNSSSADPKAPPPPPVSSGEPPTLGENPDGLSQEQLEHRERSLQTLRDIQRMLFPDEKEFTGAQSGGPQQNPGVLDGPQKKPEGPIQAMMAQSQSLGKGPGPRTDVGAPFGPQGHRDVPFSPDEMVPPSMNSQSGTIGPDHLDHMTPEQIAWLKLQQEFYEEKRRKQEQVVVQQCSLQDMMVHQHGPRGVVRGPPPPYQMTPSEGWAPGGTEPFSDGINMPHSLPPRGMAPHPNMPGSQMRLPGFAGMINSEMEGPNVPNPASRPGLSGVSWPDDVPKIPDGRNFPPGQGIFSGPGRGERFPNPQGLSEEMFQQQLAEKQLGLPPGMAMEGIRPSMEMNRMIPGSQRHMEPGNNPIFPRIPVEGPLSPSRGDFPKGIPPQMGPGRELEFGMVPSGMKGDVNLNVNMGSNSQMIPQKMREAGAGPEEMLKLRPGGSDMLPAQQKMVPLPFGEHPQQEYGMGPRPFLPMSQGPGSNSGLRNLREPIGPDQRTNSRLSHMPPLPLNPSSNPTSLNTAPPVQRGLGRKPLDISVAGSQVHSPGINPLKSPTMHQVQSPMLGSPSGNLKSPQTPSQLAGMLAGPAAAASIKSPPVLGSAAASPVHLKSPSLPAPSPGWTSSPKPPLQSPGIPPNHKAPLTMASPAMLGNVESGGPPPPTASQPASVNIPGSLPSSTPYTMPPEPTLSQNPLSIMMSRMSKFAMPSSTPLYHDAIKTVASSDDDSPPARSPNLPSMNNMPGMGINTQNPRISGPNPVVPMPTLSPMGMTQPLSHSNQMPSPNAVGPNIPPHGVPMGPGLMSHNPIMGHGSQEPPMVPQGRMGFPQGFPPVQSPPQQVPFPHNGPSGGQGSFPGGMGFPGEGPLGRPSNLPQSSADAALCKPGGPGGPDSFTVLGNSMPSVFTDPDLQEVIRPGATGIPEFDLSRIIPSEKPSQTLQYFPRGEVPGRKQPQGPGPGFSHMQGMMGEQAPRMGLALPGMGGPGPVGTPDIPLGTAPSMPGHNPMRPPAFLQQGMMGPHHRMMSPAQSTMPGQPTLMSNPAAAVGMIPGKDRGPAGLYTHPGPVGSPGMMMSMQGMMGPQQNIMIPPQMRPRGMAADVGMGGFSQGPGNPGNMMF
Test Description: Inhibition of full length beta-catenin (1 to 781 residues) (unknown origin) expressed in Escherichia coli BL21 (DE3)/N-terminal biotinylated human BCL9 HD2 (350 to 375 residues) protein-protein interaction incubated for 1 hr by Alphascreen assay
pIC50: −log10 of the molar value.
Lab note: anything with pIC50 at or over 5 counts as Fulfilled; the rest go in Not fulfilled.

Completed entries (count: 5):
O=C(c1ccc(O[C@H]2CCNC2)c(C2CCCCC2)c1)N1CCC(Oc2cc(F)cc(N3CCNCC3)c2)CC1 : Not fulfilled
CC(C)(C)C(=O)N1CCC(c2cc(C(=O)N3CCC(Oc4cc(F)cc(N5CCNCC5)c4)CC3)ccc2O[C@H]2CCNC2)CC1 : Not fulfilled
CC(C)(CN)C(=O)NCc1cc(F)cc(OC2CCN(C(=O)c3ccc(O[C@H]4CCNC4)c(C4CCCCC4)c3)CC2)c1 : Not fulfilled
CC(C)(C)C1CCC(c2cc(C(=O)N3CCC(Oc4cc(N5CCNCC5)ccc4C#N)CC3)ccc2O[C@H]2CCNC2)CC1 (mixture of isomers; 44) : Fulfilled
CC(C)(C)C1CCC(c2cc(C(=O)N3CCC(Oc4cc(N5CCNCC5)ccc4Cl)CC3)ccc2O[C@H]2CCNC2)CC1 (mixture of isomers) : Fulfilled

Challenge: // inclusive: pIC50 at least 5? input: `O=C(c1ccc(O[C@H]2CCNC2)c(C2CCOCC2)c1)N1CCC(Oc2cc(F)cc(N3CCNCC3)c2)CC1`
Response given: Not fulfilled

Challenge: // inclusive: pIC50 at least 5? input: `O=C(c1ccc(O[C@H]2CCNC2)c(-c2ccc3ccccc3c2)c1)N1CCC(Oc2cc(F)cc(N3CCNCC3)c2)CC1`
Response given: Fulfilled

Challenge: // inclusive: pIC50 at least 5? input: `O=C(c1ccc(O[C@H]2CCNC2)c(-c2ccc(C(F)(F)F)cc2)c1)N1CCC(Oc2cc(F)cc(N3CCNCC3)c2)CC1`
Response given: Not fulfilled

Challenge: // inclusive: pIC50 at least 5? input: CC(C)(C)C1CCC(c2cc(C(=O)N3CCC(Oc4cc(N5CCNCC5)ccc4C#N)CC3)ccc2O[C@H]2CCNC2)CC1 (mixture of isomers; 36)
Response given: Fulfilled

Challenge: // inclusive: pIC50 at least 5? input: `O=C(c1ccc(O[C@H]2CCNC2)c(C2CCCCC2)c1)N1CCC(Oc2cc(F)cc(N3CCC4(CC3)CNC4)c2)CC1`
Response given: Not fulfilled

Recorded values, source ChEMBL document CHEMBL5226326.
